We begin with a simple list: items and their reported self-cleavage.
B1: OR4K15 (parent)
chain: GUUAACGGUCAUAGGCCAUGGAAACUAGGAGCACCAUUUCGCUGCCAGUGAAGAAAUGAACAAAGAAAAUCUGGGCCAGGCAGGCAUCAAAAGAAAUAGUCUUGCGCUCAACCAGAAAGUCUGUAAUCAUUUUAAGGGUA

Variants of: B1
Test: self-cleavage, relative activity (ratio to wild type); higher = more cleavage; in vitro, sequencing; the parent is a self-cleaving ribozyme
Form field (numeric): enter value without unit.

# example entries with known answers
Q. Tell me self-cleavage reported for GUUAACGGUCAUAGGCCAUGGAAACUAGGAGCACCAUUUCGCUGCCAGUGAAGAAAUGAACAAAGGAAAUCUGGGCCGGGCAGGCAUCAAAAGAAAUAGUCUUGCGCUCAACCAGAAAGUCUGUAAUCAUUUUAAGGGUA [A66G A78G]
A. 0.31

Q. Tell me self-cleavage reported for GUUAACGGUCAUAGGCCAUGGAAACUAGGAGCACCAUUUCGCUGCCAGAGAAGAAAUGAACAAAGAAAAUCUGGGCCAGGCAGGCAUCAGAAGAAAUAGUCUUGCGCUCAACCAGAAAGUCUGUAAUCAUUUUAAGGGUA [U49A A90G]
A. 0.81

Q. Tell me self-cleavage reported for GUUAACGGUCAUAGGCCAUGGAAACUAGGAGCACCAUUUCGCUGCCAGUGAAGAAAUGAACAAAGAAAAUCUGGGCCAGGCAGGCAUCAAAAGAAAUAGUCUUGCGCUCAUCCAGAGAGUCUGUAAUCAUUUUAAGGGUA [A111U A117G]
A. 0.06

Q. Tell me self-cleavage reported for GUUAACGGUCAUAGGCCAUGGAAACUAGGAGCACCACUUCGCUGCCAGUGAAGAAAUGAACAAAGAAAAUCUGGGCCAGGCAGGCAUCAAAAGAAUUAGUCUUGCGCUCAACCAGAAAGUCUGUAAUCAUUUUAAGGGUA [U37C A96U]
A. 1.84

Q. Tell me self-cleavage reported for GUUAACGGUCAUAGGCCAUGGAAACUAGGAGCACCAUUUCGCUGCCAGAGAAGAAAUGAACAAAGAAAAUCUGGCCCAGGCAGGCAUCAAAAGAAAUAGUCUUGCGCUCAACCAGAAAGUCUGUAAUCAUUUUAAGGGUA [U49A G75C]
A. 0.07

Q. Tell me self-cleavage reported for GUUAACGGUCAUAGGCCUUGGAAACUAGGAGCACCAUUUCGCUGCCAGCGAAGAAAUGAACAAAGAAAAUCUGGGCCAGGCAGGCAUCAAAAGAAAUAGUCUUGCGCUCAACCAGAAAGUCUGUAAUCAUUUUAAGGGUA [A18U U49C]
A. 1.47

***
Q. Tell me self-cleavage reported for GUUAACGGUCAUAGGCCAUGGAAACUAGGAGCACCAUUUCGCUGCCCGUGAAGAAAUGAACAAAGAAAAUCUGUGCCAGGCAGGCAUCAAAAGAAAUAGUCUUGCGCUCAACCAGAAAGUCUGUAAUCAUUUUAAGGGUA [A47C G74U]
A. 0.15

Q. Tell me self-cleavage reported for GUUAACGGUCAUAGGCCAUGGAAACUAGGAGCACCAUUUCGCUGCCGGUGAUGAAAUGAACAAAGAAAAUCUGGGCCAGGCAGGCAUCAAAAGAAAUAGUCUUGCGCUCAACCAGAAAGUCUGUAAUCAUUUUAAGGGUA [A47G A52U]
A. 1.73

Q. Tell me self-cleavage reported for GUUAACGGACAUAGGCCAUGGAAACUAGGAGCACCAUUUCGAUGCCAGUGAAGAAAUGAACAAAGAAAAUCUGGGCCAGGCAGGCAUCAAAAGAAAUAGUCUUGCGCUCAACCAGAAAGUCUGUAAUCAUUUUAAGGGUA [U9A C42A]
A. 0.53

Q. Tell me self-cleavage reported for GUUAACGGUCAUAGGCCAUGGAAACUAGGAGCACCAUUUCUCUGCCAGUGAAGAAAUGAACAAAGAAAAUCUGGGCCAGGCAGGCAUCAAAAGAAAUAGUCUUGCGCUCAACCAGAAAGUCUGUAAUCACUUUAAGGGUA [G41U U130C]
A. 1.59

Q. Tell me self-cleavage reported for GUUAACGGUCAUAGGCCAUGGAAACUAGGCGCACCAUUUCGCUGCCAGUGAAGAAAUGAACAAAGAAAAUCUGGGCCAGGCAGGCAUCAAAAGAAGUAGUCUUGCGCUCAACCAGAAAGUCUGUAAUCAUUUUAAGGGUA [A30C A96G]
A. 1.43

Q. Tell me self-cleavage reported for GUUAACGGUCAUAGGCCAUGGAAACUAGGAGCACCAUUUCGCUGCCAGUGAAGAAAUGAACAAAGAAAAUCUGGGCCAGGCAGGCAUCAAAAGAAAUAGUCUUGCGCUCAACCAGAAAGUCUGUAGUCAUGUUAAGGGUA [A126G U131G]
A. 1.23

Q. Tell me self-cleavage reported for GUUAACGGUCAUAGGCCAUGGAAACUAGGAGCACCAUUUAGCUGCCAGUGAAGAAAUGAACAAAGAAAAUCUGGGCCAGGCAGGCAUCAAAAGAAAUAGUCUUGCGCUCAACCAGAAAGUCUGCAAUCAUUUUAAGGGUA [C40A U124C]
A. 0.93

Q. Tell me self-cleavage reported for GUUAACGGUCAUAGGCCAUGGAAACUAGGAGCACCAUUUCGCUGCCAGUGAAGAAAUGAGCAAAGAAAAUCUGGGCCAGGCAGGCAUCAAAAGAAAUAGUCUUGCGCUCAACCAGACAGUCUGUAAUCAUUUUAAGGGUA [A60G A117C]
A. 0.3

Q. Tell me self-cleavage reported for GUUAACGGUCAUAGGCCAUGGAAACUAGGAGCACCAUUUCGCUGCCAGUGAAGAGAUGUACAAAGAAAAUCUGGGCCAGGCAGGCAUCAAAAGAAAUAGUCUUGCGCUCAACCAGAAAGUCUGUAAUCAUUUUAAGGGUA [A55G A59U]
A. 1.13

Q. Tell me self-cleavage reported for GUUAACGGUCAUCGGCCAUGGAAACUAGGAGCACCAUUUCGCUGCCAGUGAAGAAAUGAACAAAGAAAAUCUGGGCCAGGCAGGCAUCAAAAGAGAUAGUCUUGCGCUCAACCAGAAAGUCUGUAAUCAUUUUAAGGGUA [A13C A95G]
A. 1.32

Q. Tell me self-cleavage reported for GUUAACGGUCCUAGGCCAUGGAAACUAGGAGCACCAUUUCGCUGCCAGUGAAGAAAUGAACAAAGAAAAUCAGGGCCAGGCAGGCAUCAAAAGAAAUAGUCUUGCGCUCAACCAGAAAGUCUGUAAUCAUUUUAAGGGUA [A11C U72A]
A. 0.17

Q. Tell me self-cleavage reported for GUUAACGGUCAUAGGCCAUGGAAACUAGGAGCACCAUUUCGCUGCCAGUGAAGAAAUGAACAAAGAAAAUCUGGGCCAGGCAGGCAUCGAAAGAAAUAGUCUUGCGCUCAACCAGAAAGUCUGCAAUCAUUUUAAGGGUA [A89G U124C]
A. 0.93

Q. Tell me self-cleavage reported for GUUAACGGUCAUAGGCUAUGGGAACUAGGAGCACCAUUUCGCUGCCAGUGAAGAAAUGAACAAAGAAAAUCUGGGCCAGGCAGGCAUCAAAAGAAAUAGUCUUGCGCUCAACCAGAAAGUCUGUAAUCAUUUUAAGGGUA [C17U A22G]
A. 1.48

Q. Tell me self-cleavage reported for GUUAACGGUCAUAGGCCAUGGAAACUAGGAGCACCAUUUCGCUGCCAGUGAAGAAAUGAACAAAGAAAAUCUGGGCCAGGCAGGCAUCAAAAGAAAUAGUCUUGCGCUCAACCAGAUCGUCUGUAAUCAUUUUAAGGGUA [A117U A118C]
A. 0.51

Q. Tell me self-cleavage reported for GUUAACGGUCAUAGGCCAUGGAAACUAGGAACACCAUUUCGCUGCCAGUGAAGAAAUGAACAAAGAAAAUCUGGGCCAGGCAGGCAUCAAAAGAAAUAGUCUUGCGCUCAACCAGAGAGUCUGUAAUCAUUUUAAGGGUA [G31A A117G]
A. 1.42

Q. Tell me self-cleavage reported for GUUAACGGUCAUAGGCCAUGGAAACUAGGAGCACCAUUUCGCUGCCAGUGAAGAAAUGAACAAAGAAAAUCUGGGCCAGGCAGGCAUCAAAGGAAAUAGUCUUGCGCUCAACCAGAAAGUCUGUAAUCAUUUUACGGGUA [A92G A135C]
A. 0.84

Q. Tell me self-cleavage reported for GUUAACGGUCAUAGGCCAUGGAAACUAGGAGCACCAUUUCGCUGCCAGUGAAGAAAUGAACAAAGAAAAUCUGGGCCAGGCAGGCAUCAAAAGAAAUAGCCUUGCGCUCAACCAGAUAGUCUGUAAUCAUUUUAAGGGUA [U100C A117U]
A. 1.45

Q. Tell me self-cleavage reported for GUUAACGGUCAAAGGCCAUGGAAACUAGGAGCACCAUUUCGCUGCCAGUGAAGAAAUGAACAAAGAAAAUCUGGGCCAGGCAGGCAUCAAAAGAAAUAGUCUUGCGCUCAACCAGAAAGUCCGUAAUCAUUUUAAGGGUA [U12A U122C]
A. 1.26

Q. Tell me self-cleavage reported for GUUAACGGUCAUAGGCCAUGGAAACUAGGAGCACCAUUUCGCUGCCAGUGAAGAAAUGCGCAAAGAAAAUCUGGGCCAGGCAGGCAUCAAAAGAAAUAGUCUUGCGCUCAACCAGAAAGUCUGUAAUCAUUUUAAGGGUA [A59C A60G]
A. 0.56

Q. Tell me self-cleavage reported for GUUAACGGUCAUAGGCCAUGGAAACUAGGAGCACCAUUUCGCUGCCAGUGAGGAAAUGAACAAAGAAAAUCUGGGCCAGUCAGGCAUCAAAAGAAAUAGUCUUGCGCUCAACCAGAAAGUCUGUAAUCAUUUUAAGGGUA [A52G G80U]
A. 0.12

Q. Tell me self-cleavage reported for GUUAACGGUCAUAGGCCAUGGAAACUAGGAGCACCACUUCGCUGCCAGUGAAGAAAUGAACAAAGAAAAUCUGGGCCAGGCAGGCAUCAAAAGAAAUAGUCUUGCGCUCAACCAGAAAGUCUGUAAUCAUUUUAGGGGUA [U37C A135G]
A. 0.95

Q. Tell me self-cleavage reported for GUUAACGGUCAUAGGCCAUGGAAACUAGGAGCACCAUUUCGCUGCCAUUGAAGAAAUGAACAAAGAAAAUCUGGGCCAGGCAGGCAUCAAAAGAAAUAGUCUUGCGCUCAACCAGAAAGUCUGUAAUCAUUUUAAGGGUA [G48U]
A. 1.61

Q. Tell me self-cleavage reported for GUUAACGGUCAUAGGCCAUGGAAACUAGGAGCACCAUUUCGCUGCCAGUGAAGAAAUGAACAAAGAAAAUCUGGGCCAGGCUGGCAUCAAAAGAAAUAGUCUUGUGCUCAACCAGAAAGUCUGUAAUCAUUUUAAGGGUA [A82U C105U]
A. 0.01

Q. Tell me self-cleavage reported for GUUAACGGUCAUAGGCCAUGGAAACUAGGAGCACCAUUUCGCUGCCAGUGAAGAAAUGAACAAAGAAAAUCUGGGCCAGGCUGGCAUCAAAAGAAAUAGUCUUGCGCUCAACCAGAAAGUCGGUAAUCAUUUUAAGGGUA [A82U U122G]
A. 0.28
